molecular target: RSV F on RSV-A2 virus (Respiratory syncytial virus (RSV-A2)); assay: cell-based or functional assay
Reported Neutralization IC50 (RSV subtype A) is given for each of the following binders.

What measured Neutralization IC50 (RSV subtype A) goes with ADI-41292 (antibody, V domains shown) VH: EVQLLESGGGVVQPGRSLRLSCAASGFSFSSYGIHWVRQAPGKGLECVALMSYDGSEKYYADSVKGRFTISRDNSKNTLYLHMNSLRREDTAVYYCAKGSHLRWSHLDYYFHLWGRGTLVTVSS VL: DIVMTQSPSTLSASVGDRVTITCRASQSLSTWLAWYQQKPGKAPKLLISDASNLESGVPSRFSGRGSGTEFTLTISGLQPDDFATYYCQQERTFGQGTKVDIK ?
> 25 µg/mL

What measured Neutralization IC50 (RSV subtype A) goes with ADI-41319 (antibody, V domains shown) VH: QVQLQESGPGLVKPSQTLSLTCTVSGGSISSGDYYWSWIRQPPGKGLEWIGYIFYSGTTYYNPSLKSRVTISLDTSQNQFSLKLSSVTAADTAVYYCARDGDEVDYVWGTRRYLDSWGRGTLVTVSS VL: EIVLTQSPGTLSLSPGERATLSCRASQSVSSRYLAWYQQKPGQAPRLLIHGASSRATGIPDRFSGSGSGTDFTLTISRLEPEDFAVYYCLQYGSLPKTFGQGTKVEIK ?
> 25 µg/mL

What measured Neutralization IC50 (RSV subtype A) goes with ADI-41316 (antibody, V domains shown) VH: QVQLVQSGGGVVQPGRSLRLSCAASGFTFNNYGMHWVRQAPGKGLEWVAVLSFDGINKYYADSARGRFTISRDNSKNTLYLQMNSLRAEDTALYYCAKDRQEYSSGWTHDACDIWGQGTMVTVSS VL: EIVMTQSPATLSVSPGERATLSCRASQNVNNNLAWYQQNPGQAPRLLIFGASTRATGIPARFSGSGSGTEFTLTISSLQSEDFAVYYCQQYNNWPRTFGQGTKLEIK ?
> 25 µg/mL
